- METHOD: MRTinfinity in ICR mouse plasma at 1 mg/kg, iv measured upto 8 hrs by LC-MS/MS analysis
- Assay type: ADME, organism-based
METRIC: MRT inf (min)
Number only, in min; omit the unit.

Query: Consider the compound shown here: CCNCCc1ccc(Cl)c(-c2ccccc2OC)c1.Cl What is its recorded MRT inf?
Result: 42

----------
- METHOD: Bioavailability in ICR mouse plasma at 10 mg/kg, ip measured upto 8 hrs by LC-MS/MS analysis
- Format: ADME, organism-based
METRIC: bioavailability (%)
The answer is to be given in %; state only the numeric part.

Query: Bench note: what bioavailability did CCNCCc1ccc(Cl)c(-c2ccccc2OC)c1.Cl show?
Result: 134
